# TEST_SYSTEM: Fibronectin receptor (human), P08648
# Sequence (P08648 42-1049, chain 1 of 2): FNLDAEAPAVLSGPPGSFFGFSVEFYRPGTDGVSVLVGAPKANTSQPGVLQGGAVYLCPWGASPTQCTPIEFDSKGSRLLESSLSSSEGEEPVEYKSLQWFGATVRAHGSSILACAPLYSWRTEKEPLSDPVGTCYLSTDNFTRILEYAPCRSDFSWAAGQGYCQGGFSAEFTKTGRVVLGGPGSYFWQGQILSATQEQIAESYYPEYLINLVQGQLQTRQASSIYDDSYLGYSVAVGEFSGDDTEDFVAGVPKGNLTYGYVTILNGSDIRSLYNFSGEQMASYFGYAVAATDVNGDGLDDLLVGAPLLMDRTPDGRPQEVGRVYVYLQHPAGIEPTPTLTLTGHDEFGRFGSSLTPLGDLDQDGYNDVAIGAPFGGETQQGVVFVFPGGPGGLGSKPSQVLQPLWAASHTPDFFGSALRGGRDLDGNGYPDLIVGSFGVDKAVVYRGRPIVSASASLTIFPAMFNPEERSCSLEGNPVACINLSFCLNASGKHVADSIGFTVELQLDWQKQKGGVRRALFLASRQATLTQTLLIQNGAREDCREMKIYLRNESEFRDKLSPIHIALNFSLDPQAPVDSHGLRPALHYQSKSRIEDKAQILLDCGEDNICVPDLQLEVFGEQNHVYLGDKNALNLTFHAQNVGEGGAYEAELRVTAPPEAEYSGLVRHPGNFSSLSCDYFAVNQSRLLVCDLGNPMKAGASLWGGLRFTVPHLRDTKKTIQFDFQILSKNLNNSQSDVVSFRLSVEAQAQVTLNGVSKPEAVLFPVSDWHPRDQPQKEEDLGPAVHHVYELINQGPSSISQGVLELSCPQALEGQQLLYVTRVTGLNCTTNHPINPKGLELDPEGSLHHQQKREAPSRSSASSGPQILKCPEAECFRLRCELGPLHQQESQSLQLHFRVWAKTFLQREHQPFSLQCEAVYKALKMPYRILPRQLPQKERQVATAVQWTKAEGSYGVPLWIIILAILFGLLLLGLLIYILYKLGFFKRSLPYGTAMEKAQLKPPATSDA
# Sequence (chain, as listed by the source, chain 2 of 2): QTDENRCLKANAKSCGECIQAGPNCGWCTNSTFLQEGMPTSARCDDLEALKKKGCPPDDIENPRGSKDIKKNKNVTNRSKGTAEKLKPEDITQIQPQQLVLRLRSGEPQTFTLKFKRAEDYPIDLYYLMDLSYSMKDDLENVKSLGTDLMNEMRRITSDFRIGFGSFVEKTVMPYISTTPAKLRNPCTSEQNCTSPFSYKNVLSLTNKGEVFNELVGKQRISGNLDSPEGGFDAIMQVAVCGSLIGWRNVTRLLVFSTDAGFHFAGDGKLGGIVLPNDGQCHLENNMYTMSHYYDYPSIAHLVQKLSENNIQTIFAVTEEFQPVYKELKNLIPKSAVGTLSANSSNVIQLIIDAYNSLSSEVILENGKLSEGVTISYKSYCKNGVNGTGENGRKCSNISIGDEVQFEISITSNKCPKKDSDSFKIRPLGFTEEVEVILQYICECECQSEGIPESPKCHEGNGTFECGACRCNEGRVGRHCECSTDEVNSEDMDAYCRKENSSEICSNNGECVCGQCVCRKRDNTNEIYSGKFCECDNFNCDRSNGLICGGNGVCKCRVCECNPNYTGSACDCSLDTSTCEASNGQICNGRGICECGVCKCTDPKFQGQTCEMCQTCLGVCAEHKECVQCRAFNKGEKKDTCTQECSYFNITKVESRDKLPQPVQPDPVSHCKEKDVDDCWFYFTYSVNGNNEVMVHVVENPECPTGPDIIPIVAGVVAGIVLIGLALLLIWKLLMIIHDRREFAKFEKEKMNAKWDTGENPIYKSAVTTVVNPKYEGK
# PROCEDURE_DETAILS: ELISA
# CONDITION_PARAMETERS: modification not given
Starred links: 1 amine or outer side, 2 acyl side, 3 side chain; linkers in the order of their positions; H or OH if unused. Positions of bridges follow the written chain, without caps; N, C: chain ends. Non-standard residues stand in square brackets, D forms with d. Primed or numbered codes have the meaning given here. No end group written: not given here. Pmc′ = pentamethylenecysteine (from Boc-D/L-Pmc), O=C(C(N[*:1])C1(S[*:3])CCCCC1)[*:2]; Cys(β,β-pentamethylene) = O=C([C@@H](N[*:1])C1(S[*:3])CCCCC1)[*:2]; Tyr(Me)″ = COc1ccc(C[C@H](N[*:1])C(=O)[*:2])cc1
EXPERIMENTAL_READOUT: IC50

binder="R[Cys(β,β-pentamethylene)]GXRGD[Tyr(Me)″]RCR (disulfide 2-10; not fully specified (residue 4); printed as R(Pmc)G(DY)RGD(Y-OMe)RCR) [R(Pmc)G(DY)RGD(Y-OMe)RCR]" result="10 µM"

Could you now consider this next binder?
Task item: Query: IC50; subject: R[Pmc′]SHRGD[Y‑OMe]RCR (disulfide 2-10) [R(Pmc)SHRGD(Y-OMe)RCR]
Reply: > 10 µM

src = patent US6521594
